Target: M1 muscarinic receptor (Homo sapiens)
Construct: expressed in transfected cells; host or cells: CHO (M1-CHO)
Sequence (P11229 whole entry): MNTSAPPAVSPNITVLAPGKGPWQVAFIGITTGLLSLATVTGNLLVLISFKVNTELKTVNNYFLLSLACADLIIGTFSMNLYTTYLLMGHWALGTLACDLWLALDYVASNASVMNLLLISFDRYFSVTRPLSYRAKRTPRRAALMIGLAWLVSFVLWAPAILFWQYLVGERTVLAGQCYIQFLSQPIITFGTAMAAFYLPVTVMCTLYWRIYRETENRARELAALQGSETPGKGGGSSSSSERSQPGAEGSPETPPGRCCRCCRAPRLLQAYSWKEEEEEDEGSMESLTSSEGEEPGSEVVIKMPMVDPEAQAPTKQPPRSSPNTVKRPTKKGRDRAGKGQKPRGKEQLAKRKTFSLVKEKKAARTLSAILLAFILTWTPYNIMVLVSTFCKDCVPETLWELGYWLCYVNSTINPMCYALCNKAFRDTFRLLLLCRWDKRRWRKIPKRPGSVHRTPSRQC
Experiment: Functional mobilization of intracellular calcium (FLIPR), M1-CHO cells
Type: cell-based
Conditions: 100% efficacy = maximum response obtained with the Carbachol control
reported endpoint: Emax

[
  {
    "compound": "COc1ccccc1C1CCN(CC2CCC3CCC2C3)CC1 (centres unmarked) [Compound 61]",
    "measured": "< 25%"
  },
  {
    "compound": "COc1ccccc1C1CCN(C2CCC(C(C)C)CC2)CC1 (centres unmarked) [Compound 155]",
    "measured": "< 25%"
  },
  {
    "compound": "COc1ccc(-c2ccccc2C)cc1C1CCN([C@@H]2C[C@H]3CC[C@H]2C3)CC1 [Compound 67]",
    "measured": "< 25%"
  },
  {
    "compound": "COc1ccc(Cl)cc1C1(O)CCN(C2CCCCC2)CC1 [Compound 99]",
    "measured": "< 25%"
  },
  {
    "compound": "Cc1ccccc1C1CCN(C2CC3CCC(C3)C2)CC1 (centres unmarked) [Compound 86]",
    "measured": "25 to 100%"
  },
  {
    "compound": "COc1ccc(-c2cccc(C(N)=O)c2)cc1C1CCN([C@@H]2C[C@H]3CC[C@H]2C3)CC1 [Compound 144]",
    "measured": "< 25%"
  },
  {
    "compound": "COc1ccc(-c2cccc(F)c2F)cc1C1CCN([C@@H]2C[C@H]3CC[C@H]2C3)CC1 [Compound 318]",
    "measured": "< 25%"
  },
  {
    "compound": "COc1ccc(F)cc1C1(OC)CCN(C[C@@H]2C[C@H]3C=C[C@H]2C3)CC1 [Compound 160]",
    "measured": "25 to 100%"
  },
  {
    "compound": "COc1ccc(-c2ccc(C(=O)N3CCCC3)cc2)cc1C1CCN([C@H]2C[C@H]3CC[C@H]2C3)CC1 [Compound 17]",
    "measured": "< 25%"
  },
  {
    "compound": "COc1ccc(-c2ccc3c(c2)OCO3)cc1C1CCN(C2CC3CCC(C3)C2)CC1 (centres unmarked) [Compound 77]",
    "measured": "< 25%"
  },
  {
    "compound": "COc1ccc(F)cc1C1CCN([C@@H]2C[C@H]3CC[C@H]2C3)CC1 [Compound 354]",
    "measured": "25 to 100%"
  },
  {
    "compound": "Fc1ccc(F)c(C2CCN(C3C[C@H]4CC[C@H]3C4)CC2)c1 (some centres unmarked) [Compound 205]",
    "measured": "25 to 100%"
  },
  {
    "compound": "COc1ccccc1C1(O)CCN(C2CC3CCC2C3)CC1 (centres unmarked) [Compound 25]",
    "measured": "< 25%"
  },
  {
    "compound": "Cc1ccccc1C1CCN([C@H]2C[C@H]3CC[C@H]2C3)CC1 [Compound 24]",
    "measured": "25 to 100%"
  }
]

* * *

Catalogue of Emax values
Biological target: M2 muscarinic receptor (Homo sapiens, UniProt P08172)
Construct: expressed in transfected cells; host or cells: CHO (M2-CHO)
Sequence (P08172 whole entry): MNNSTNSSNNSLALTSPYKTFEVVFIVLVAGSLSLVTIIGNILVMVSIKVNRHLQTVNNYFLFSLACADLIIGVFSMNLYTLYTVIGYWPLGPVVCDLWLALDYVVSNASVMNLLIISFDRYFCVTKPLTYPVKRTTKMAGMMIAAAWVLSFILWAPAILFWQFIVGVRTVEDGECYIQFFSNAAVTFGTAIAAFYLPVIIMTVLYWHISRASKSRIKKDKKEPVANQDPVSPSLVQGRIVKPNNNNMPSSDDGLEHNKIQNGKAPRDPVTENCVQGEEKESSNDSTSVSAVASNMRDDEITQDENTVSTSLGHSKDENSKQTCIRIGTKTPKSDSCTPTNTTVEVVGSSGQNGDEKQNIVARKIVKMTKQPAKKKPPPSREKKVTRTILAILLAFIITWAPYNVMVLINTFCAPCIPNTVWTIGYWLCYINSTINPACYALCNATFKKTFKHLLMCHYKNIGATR
Assay: Functional mobilization of intracellular calcium (FLIPR), M2-CHO cells
Assay type: cell-based
Settings: 100% efficacy = maximum response obtained with the Carbachol control
reported endpoint: Emax

[
  {
    "molecule": "COc1ccc(F)cc1C1CCN([C@H]2C[C@H]3CC[C@H]2C3)CC1",
    "measured": "< 25%"
  },
  {
    "molecule": "CNC(=O)c1ccc(-c2ccc(OC)c(C3CCN(C4C[C@H]5CC[C@H]4C5)CC3)c2)cc1Cl (some centres unmarked)",
    "measured": "< 25%"
  },
  {
    "molecule": "CCOC(=O)N1CCC(CN2CCC(c3cccc4c3OCO4)CC2)CC1",
    "measured": "< 25%"
  },
  {
    "molecule": "COc1ccc(Br)cc1C1CCN([C@@H]2C[C@@H]3CC[C@H]2C3)CC1",
    "measured": "25 to 100%"
  },
  {
    "molecule": "COc1ccc(-c2ccccc2)cc1C1CCN([C@H]2C[C@H]3CC[C@H]2C3)CC1",
    "measured": "< 25%"
  },
  {
    "molecule": "COc1ccc(Cl)cc1C1(O)CCN(C[C@@H]2C[C@H]3C=C[C@H]2C3)CC1",
    "measured": "< 25%"
  },
  {
    "molecule": "COc1ccc(Cl)cc1C1CCN(CC2CC3CCC2CC3)CC1 (centres unmarked)",
    "measured": "< 25%"
  },
  {
    "molecule": "CCCC1CCC(N2CCC(O)(c3cc(Cl)ccc3OC)CC2)CC1 (centres unmarked)",
    "measured": "< 25%"
  },
  {
    "molecule": "COc1ccc(-c2ccc(S(C)(=O)=O)cc2)cc1C1CCN(C2CCOCC2)CC1",
    "measured": "< 25%"
  },
  {
    "molecule": "Cc1ccccc1C1CCN([C@H]2C[C@H]3CC[C@H]2C3)CC1",
    "measured": "25 to 100%"
  },
  {
    "molecule": "CC(C)Oc1ccccc1C1CCN([C@H]2C[C@H]3CC[C@H]2C3)CC1",
    "measured": "< 25%"
  },
  {
    "molecule": "COc1ccc(Cl)cc1C1(O)CCN(C2CCC3CCC2C3)CC1 (centres unmarked)",
    "measured": "< 25%"
  },
  {
    "molecule": "COc1ccc(Cl)cc1C1(F)CCN(C2CCC3CCC2C3)CC1 (centres unmarked)",
    "measured": "25 to 100%"
  },
  {
    "molecule": "CCOC(=O)N1CCC(N2CCC(c3cc(F)ccc3OC)CC2)CC1",
    "measured": "25 to 100%"
  },
  {
    "molecule": "COc1c(F)cc(F)cc1C1CCN(C2CC3CCC(C3)C2)CC1 (centres unmarked)",
    "measured": "< 25%"
  },
  {
    "molecule": "COc1ccc(F)cc1C1(O)CCN(CC2CCOCC2)CC1",
    "measured": "< 25%"
  },
  {
    "molecule": "CCOC(=O)N1C2CCC1CC(N1CCC(c3cc(-c4ccc(C#N)cc4)ccc3OC)CC1)C2 (centres unmarked)",
    "measured": "< 25%"
  },
  {
    "molecule": "COc1ccc(C(=O)C(C)C)cc1C1CCN(C2CC3CC[C@H]2C3)CC1 (stereo in doubt)",
    "measured": "< 25%"
  },
  {
    "molecule": "O=C(COc1ccccc1C1CCN([C@H]2C[C@H]3CC[C@H]2C3)CC1)c1ccccc1Cl",
    "measured": "< 25%"
  },
  {
    "molecule": "CCC(=O)c1ccc(OC)c(C2CCN([C@H]3C[C@H]4CC[C@H]3C4)CC2)c1",
    "measured": "< 25%"
  },
  {
    "molecule": "CCOC(=O)N1C2CCC1CC(N1CCC(OC)(c3cc(F)ccc3OC)CC1)C2 (centres unmarked)",
    "measured": "< 25%"
  },
  {
    "molecule": "COc1ccccc1C1CCN(CC2CCC3CCC2C3)CC1 (centres unmarked)",
    "measured": "< 25%"
  },
  {
    "molecule": "c1ccc(COc2ccccc2C2CCN([C@H]3C[C@H]4CC[C@H]3C4)CC2)cc1",
    "measured": "< 25%"
  },
  {
    "molecule": "CCOc1ccccc1C1CCN([C@H]2C[C@H]3CC[C@H]2C3)CC1",
    "measured": "< 25%"
  },
  {
    "molecule": "c1cc2c(c(C3CCN(C4C[C@@H]5CC[C@@H]4C5)CC3)c1)OCO2 (some centres unmarked)",
    "measured": "< 25%"
  },
  {
    "molecule": "Cc1ccc(-c2ccccc2C2CCN([C@H]3C[C@H]4CC[C@H]3C4)CC2)cc1",
    "measured": "< 25%"
  }
]

* * *

Target: M4 muscarinic receptor (Homo sapiens, UniProt P08173)
Construct: expressed in transfected cells; host or cells: CHO (M4-CHO)
Sequence (P08173 1-479): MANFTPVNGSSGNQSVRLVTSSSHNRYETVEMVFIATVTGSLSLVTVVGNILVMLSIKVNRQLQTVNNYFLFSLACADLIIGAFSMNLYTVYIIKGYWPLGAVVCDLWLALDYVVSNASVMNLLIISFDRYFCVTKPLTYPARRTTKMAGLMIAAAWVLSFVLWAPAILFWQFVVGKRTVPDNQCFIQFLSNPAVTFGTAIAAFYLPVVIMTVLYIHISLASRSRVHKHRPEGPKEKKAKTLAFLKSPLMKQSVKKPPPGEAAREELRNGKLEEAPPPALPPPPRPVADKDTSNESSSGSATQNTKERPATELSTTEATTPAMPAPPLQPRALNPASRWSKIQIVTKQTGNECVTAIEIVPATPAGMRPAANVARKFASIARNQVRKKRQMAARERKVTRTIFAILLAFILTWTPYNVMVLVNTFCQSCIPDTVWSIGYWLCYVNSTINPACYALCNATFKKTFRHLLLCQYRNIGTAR
Assay: Functional mobilization of intracellular calcium (FLIPR), M4-CHO cells
Assay type: cell-based
Conditions: 100% efficacy = maximum response obtained with the Carbachol control

[
  {
    "molecule": "COc1ccc(-c2cccc(C#N)c2)cc1C1CCN([C@H]2C[C@H]3CC[C@H]2C3)CC1",
    "Emax": "25 to 100%"
  },
  {
    "molecule": "CCOC(=O)N1C2CCC1CC(CN1CCC(c3ccccc3OC)CC1)C2 (stereo not shown)",
    "Emax": "25 to 100%"
  },
  {
    "molecule": "COc1ccc(-c2cccc(C(N)=O)c2)cc1C1CCN([C@@H]2C[C@H]3CC[C@H]2C3)CC1",
    "Emax": "< 25%"
  },
  {
    "molecule": "COc1ccccc1C1CCN(C2CCCCCC2)CC1",
    "Emax": "25 to 100%"
  }
]

Where do the numbers come from? From patent US7880007B2.
